- System: KRAS PDC tumor spheroids (HUVEC+MSC), viability
- Test details: Anticancer human tumor 254851-301-R-J1-PDC patient-derived colon carcinoma cell line growth inhibition [KRAS2]
- Measurement setup: curve of first compound; second compound 10 µM
Property: IC50 (nM)
Numeric only. Scale: nM

Would you please look over these solved cases?
Molecule	Target entity	U	Numeric value
CC(=O)Nc1cccc(-n2c(=O)n(C3CC3)c(=O)c3c(Nc4ccc(I)cc4F)n(C)c(=O)c(C)c32)c1 + CC1OCC2(CCN(c3cnc(Sc4ccnc(N)c4Cl)c(N)n3)CC2)C1N	KRAS PDC tumor spheroids (HUVEC+MSC), viability	nM	0.395
COc1cc(Nc2ncc3c(n2)-c2ccc(Cl)cc2C(c2c(F)cccc2OC)=NC3)ccc1C(=O)O + C=CC(=O)N1CCN(c2nc(=O)n(-c3c(C)ccnc3C(C)C)c3nc(-c4c(O)cccc4F)c(F)cc23)C(C)C1	KRAS PDC tumor spheroids (HUVEC+MSC), viability	nM	122
CC(C)NCC(C(=O)N1CCN(c2ncnc3c2C(C)CC3O)CC1)c1ccc(Cl)cc1 (stereo not given) + COc1cc2nc(C)nc(NC(C)c3cc(N)cc(C(F)(F)F)c3)c2cc1OC1CCOC1	KRAS PDC tumor spheroids (HUVEC+MSC), viability	nM	514

# input for lookup
Specify reported IC50 for the molecule shown: COc1cc(Nc2ncc3c(n2)-c2ccc(Cl)cc2C(c2c(F)cccc2OC)=NC3)ccc1C(=O)O + COc1cc2nc(C)nc(NC(C)c3cc(N)cc(C(F)(F)F)c3)c2cc1OC1CCOC1
48.3

---

- System: KRAS PDC tumor spheroids (HUVEC+MSC), viability
- Test details: Anticancer human tumor 254851-301-R-J1-PDC cell line growth inhibition [KRAS2];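 note: spheroids exposed to compounds for seven days before readout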
- Measurement setup: curve of first compound; second compound 10 µM
Decision: IC50 beneath 0.7 µM gives t; IC50 meeting or exceeding 0.7 µM gives f.

Molecule	Cat
CCNC(=O)CC1N=C(c2ccc(Cl)cc2)c2cc(OC)ccc2-n2c(C)nnc21 (centres undefined) + CC1OCC2(CCN(c3cnc(Sc4ccnc(N)c4Cl)c(N)n3)CC2)C1N	f
CCN1CCN(Cc2ccc(Nc3ncc(F)c(-c4cc(F)c5nc(C)n(C(C)C)c5c4)n3)nc2)CC1 + CC1OCC2(CCN(c3cnc(Sc4ccnc(N)c4Cl)c(N)n3)CC2)C1N	t
COC(=O)c1ccc2c(C(=Nc3ccc(N(C)C(=O)CN4CCN(C)CC4)cc3)c3ccccc3)c(O)[nH]c2c1 + CNCc1ccccc1-c1csc(C(C)Nc2nc(C)nc3cc(OC)c(OC)cc23)c1	t
COc1cc2nccc(Oc3ccc(NC(=O)C4(C(=O)Nc5ccc(F)cc5)CC4)cc3)c2cc1OC + COc1cc2nc(C)nc(NC(C)c3cc(N)cc(C(F)(F)F)c3)c2cc1OC1CCOC1	f
CC(C)n1nc(-c2ccc3oc(N)nc3c2)c2c(N)ncnc21 + CNCc1ccccc1-c1csc(C(C)Nc2nc(C)nc3cc(OC)c(OC)cc23)c1	t
CCN1CCN(Cc2ccc(Nc3ncc(F)c(-c4cc(F)c5nc(C)n(C(C)C)c5c4)n3)nc2)CC1 + COc1cc2nc(C)nc(NC(C)c3cc(N)cc(C(F)(F)F)c3)c2cc1OC1CCOC1	t

State whether 0.7 µM exceeds IC50 recorded for CC1(C)CCC(CN2CCN(c3ccc(C(=O)NS(=O)(=O)c4ccc(NCC5CCOCC5)c([N+](=O)[O-])c4)c(Oc4cnc5[nH]ccc5c4)c3)CC2)=C(c2ccc(Cl)cc2)C1 + CNCc1ccccc1-c1csc(C(C)Nc2nc(C)nc3cc(OC)c(OC)cc23)c1 .
t

Lab log: compare recorded IC50 with 0.7 µM; is it strictly lower for CC(=O)OC12COC1CC(O)C1(C)C(=O)C(O)C3=C(C)C(OC(=O)C(O)C(NC(=O)OC(C)(C)C)c4ccccc4)CC(O)(C(OC(=O)c4ccccc4)C21)C3(C)C (centres undefined) + COc1cc2nc(C)nc(NC(C)c3cc(N)cc(C(F)(F)F)c3)c2cc1OC1CCOC1 ?
t

---

- Test system: KRAS PDC tumor spheroids (HUVEC+MSC), viability
- Test details: Anticancer human tumor 254851-301-R-J1-PDC cell line growth inhibition [KRAS2];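 note: spheroids exposed to compounds for seven days before readout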
- Measurement setup: curve of first compound; second compound 0.1 µM
pIC50: −log10 of the molar value.
So basically: pIC50 at 7 or higher? That is fulfilled. Lower than 7? That is not fulfilled.

Compound	Cat
O=C(c1cc(Cc2n[nH]c(=O)c3ccccc23)ccc1F)N1CCN(C(=O)C2CC2)CC1 + CC1OCC2(CCN(c3cnc(Sc4ccnc(N)c4Cl)c(N)n3)CC2)C1N	not fulfilled
CC(=O)Nc1cccc(-n2c(=O)n(C3CC3)c(=O)c3c(Nc4ccc(I)cc4F)n(C)c(=O)c(C)c32)c1 + CC1OCC2(CCN(c3cnc(Sc4ccnc(N)c4Cl)c(N)n3)CC2)C1N	fulfilled
CC1COCCN1c1cc(-c2ccnn2C)c2ccnc(-c3ccn[nH]3)c2n1 (stereo unspecified) + CC1OCC2(CCN(c3cnc(Sc4ccnc(N)c4Cl)c(N)n3)CC2)C1N	not fulfilled
CCN1CCN(Cc2ccc(Nc3ncc(F)c(-c4cc(F)c5nc(C)n(C(C)C)c5c4)n3)nc2)CC1 + CC1OCC2(CCN(c3cnc(Sc4ccnc(N)c4Cl)c(N)n3)CC2)C1N	not fulfilled
CCNC(=O)CC1N=C(c2ccc(Cl)cc2)c2cc(OC)ccc2-n2c(C)nnc21 (stereo unspecified) + C=CC(=O)N1CCN(c2nc(=O)n(-c3c(C)ccnc3C(C)C)c3nc(-c4c(O)cccc4F)c(F)cc23)C(C)C1	not fulfilled
CC1OCC2(CCN(c3cnc(Sc4ccnc(N)c4Cl)c(N)n3)CC2)C1N (stereo unspecified) + CNCc1ccccc1-c1csc(C(C)Nc2nc(C)nc3cc(OC)c(OC)cc23)c1	not fulfilled
O=C(c1cc(Cc2n[nH]c(=O)c3ccccc23)ccc1F)N1CCN(C(=O)C2CC2)CC1 + COc1cc2nc(C)nc(NC(C)c3cc(N)cc(C(F)(F)F)c3)c2cc1OC1CCOC1	not fulfilled
CC(C)NCC(C(=O)N1CCN(c2ncnc3c2C(C)CC3O)CC1)c1ccc(Cl)cc1 (stereo unspecified) + CNCc1ccccc1-c1csc(C(C)Nc2nc(C)nc3cc(OC)c(OC)cc23)c1	not fulfilled

Continue with the compound presented below.
Check this compound for pIC50 at or above 7: CN(C)C/C=C/C(=O)Nc1cc2c(Nc3ccc(F)c(Cl)c3)ncnc2cc1O[C@H]1CCOC1 + CNCc1ccccc1-c1csc(C(C)Nc2nc(C)nc3cc(OC)c(OC)cc23)c1
not fulfilled

---

- System: KRAS PDC tumor spheroids (HUVEC+MSC), viability
- Test details: Anticancer human tumor 254851-301-R-J1-PDC cell line growth inhibition [KRAS2];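 note: spheroids exposed to compounds for seven days before readout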
- Measurement setup: curve of first compound; second compound 0.1 µM
Recorded IC50 values for a group of compounds are listed next.
The figure you give is taken to be in µM; do not add the unit.

Solved cases below.
Compound	Target entity	Property	Numeric value
CC(=O)OC12COC1CC(O)C1(C)C(=O)C(O)C3=C(C)C(OC(=O)C(O)C(NC(=O)OC(C)(C)C)c4ccccc4)CC(O)(C(OC(=O)c4ccccc4)C21)C3(C)C (stereo not given) + C=CC(=O)N1CCN(c2nc(=O)n(-c3c(C)ccnc3C(C)C)c3nc(-c4c(O)cccc4F)c(F)cc23)C(C)C1	KRAS PDC tumor spheroids (HUVEC+MSC), viability	IC50	0.259
CC(=O)Nc1cccc(-n2c(=O)n(C3CC3)c(=O)c3c(Nc4ccc(I)cc4F)n(C)c(=O)c(C)c32)c1 + C=CC(=O)N1CCN(c2nc(OCC3CCCN3C)nc3c2CCN(c2cccc4cccc(C)c24)C3)CC1CC#N	KRAS PDC tumor spheroids (HUVEC+MSC), viability	IC50	0.00579
CC(=O)OC12COC1CC(O)C1(C)C(=O)C(O)C3=C(C)C(OC(=O)C(O)C(NC(=O)OC(C)(C)C)c4ccccc4)CC(O)(C(OC(=O)c4ccccc4)C21)C3(C)C (stereo not given) + CC1OCC2(CCN(c3cnc(Sc4ccnc(N)c4Cl)c(N)n3)CC2)C1N	KRAS PDC tumor spheroids (HUVEC+MSC), viability	IC50	0.154
CCN1CCN(Cc2ccc(Nc3ncc(F)c(-c4cc(F)c5nc(C)n(C(C)C)c5c4)n3)nc2)CC1 + COc1cc2nc(C)nc(NC(C)c3cc(N)cc(C(F)(F)F)c3)c2cc1OC1CCOC1	KRAS PDC tumor spheroids (HUVEC+MSC), viability	IC50	0.573
Cn1nccc1Nc1nccc(-c2cc3c(s2)C(C)(C)N(CCN2CCOCC2)C3=O)n1 + CNCc1ccccc1-c1csc(C(C)Nc2nc(C)nc3cc(OC)c(OC)cc23)c1	KRAS PDC tumor spheroids (HUVEC+MSC), viability	IC50	2.08
CCN1CCN(Cc2ccc(Nc3ncc(F)c(-c4cc(F)c5nc(C)n(C(C)C)c5c4)n3)nc2)CC1 + C=CC(=O)N1CCN(c2nc(OCC3CCCN3C)nc3c2CCN(c2cccc4cccc(C)c24)C3)CC1CC#N	KRAS PDC tumor spheroids (HUVEC+MSC), viability	IC50	0.645
CC(C)n1nc(-c2ccc3oc(N)nc3c2)c2c(N)ncnc21 + CNCc1ccccc1-c1csc(C(C)Nc2nc(C)nc3cc(OC)c(OC)cc23)c1	KRAS PDC tumor spheroids (HUVEC+MSC), viability	IC50	0.0186

Would you kindly look at the next entry?
Output measured IC50 for this item: CC(=O)OC12COC1CC(O)C1(C)C(=O)C(O)C3=C(C)C(OC(=O)C(O)C(NC(=O)OC(C)(C)C)c4ccccc4)CC(O)(C(OC(=O)c4ccccc4)C21)C3(C)C (stereo not given) + C=CC(=O)N1CCN(c2nc(OCC3CCCN3C)nc3c2CCN(c2cccc4cccc(C)c24)C3)CC1CC#N
0.198

// data source = PubChem BioAssay AID1963868
